Target: Recombinant IKKβ (Homo sapiens)
Construct: purchased Millipore, Dundee, UK
Sequence (O14920 whole entry): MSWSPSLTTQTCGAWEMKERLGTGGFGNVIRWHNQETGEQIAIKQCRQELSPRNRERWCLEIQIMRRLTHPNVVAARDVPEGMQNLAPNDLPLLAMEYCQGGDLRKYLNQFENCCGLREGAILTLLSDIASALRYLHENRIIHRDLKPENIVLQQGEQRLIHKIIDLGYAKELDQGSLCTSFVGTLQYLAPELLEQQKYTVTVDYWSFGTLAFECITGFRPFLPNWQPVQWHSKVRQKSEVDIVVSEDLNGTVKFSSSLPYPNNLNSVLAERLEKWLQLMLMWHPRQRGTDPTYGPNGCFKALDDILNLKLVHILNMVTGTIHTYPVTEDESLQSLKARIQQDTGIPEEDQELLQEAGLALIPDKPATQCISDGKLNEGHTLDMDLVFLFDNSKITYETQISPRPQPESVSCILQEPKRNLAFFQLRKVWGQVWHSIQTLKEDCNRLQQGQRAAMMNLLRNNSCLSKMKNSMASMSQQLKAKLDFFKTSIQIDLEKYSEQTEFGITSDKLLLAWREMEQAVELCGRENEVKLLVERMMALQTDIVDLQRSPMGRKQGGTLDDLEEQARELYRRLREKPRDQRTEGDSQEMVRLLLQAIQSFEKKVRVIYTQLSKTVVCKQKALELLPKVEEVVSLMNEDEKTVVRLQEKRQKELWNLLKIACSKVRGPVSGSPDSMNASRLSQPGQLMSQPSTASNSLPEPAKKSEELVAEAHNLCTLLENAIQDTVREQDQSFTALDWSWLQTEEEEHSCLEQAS
Test: DELFIA IKKβ kinase assay (apparent Ki, Cheng-Prusoff)
Assay type: biochemical
Conditions: non-italicised figure: DELFIA assay
MEASURED PARAMETER: Ki (µM)

Record excerpt, results attached:
>  <COMPOUND>
CC(C)(C)OCC#Cc1c(-c2ccc3[nH]nc(N)c3c2)ccnc1N [Example 88]

>  <Ki / µM>
2.34

$$$$
>  <COMPOUND>
CC(C)(C)C#Cc1cc(-c2ccnc(N)c2)cc2c(N)n[nH]c12 [Example 137]

>  <Ki / µM>
1.47

$$$$
>  <COMPOUND>
NC(=O)c1ccc(-c2cc(-c3ccnc(N)c3)cc3c(N)n[nH]c23)cc1 [Example 120]

>  <Ki / µM>
1.59

$$$$
>  <COMPOUND>
CC(C)(C)c1ccc(-c2cc(-c3ccnc(N)c3)cc3c(N)n[nH]c23)cc1 [Example 123]

>  <Ki / µM>
1.5

$$$$
>  <COMPOUND>
COCC(=O)Nc1cc(-c2cc(C#CC(C)(C)C)c3[nH]nc(N)c3c2)ccn1 [Example 175]

>  <Ki / µM>
1.11

$$$$

(P) CC(C)(C)C#Cc1cc(-c2ccnc(NCCC#N)c2)cc2c(N)n[nH]c12 [Example 159]
(Q) Nc1n[nH]c2ccc(-c3ccnc(NC(=O)NCc4ccccn4)c3)cc12 [Example 47]
(R) CC(C)(C)C#Cc1cc(-c2ccnc(NC(=O)C3CCC3)c2)cc2c(N)n[nH]c12 [Example 172]
(S) Nc1n[nH]c2c(Br)cc(-c3ncnc4[nH]ccc34)cc12 [Example 11]
Ascending by Ki, please: list the compounds accordingly. Labels, ranked as asked.
S, Q, P, R
